Assay: qHTS assay to identify small molecule agonists of the peroxisome proliferator-activated receptor delta (PPARd) signaling pathway - cell viability counter screen (AID 743211); note: nearly all actives have a fitted effect of over 55% in size
Settings: PPARd-bla HEK293H viability, CellTiter-Glo luminescence, 17 h; series mostly up to 62.6 µM
Results filed as inconclusive are left out. Activity calls are given as the source filed them. Calls come from the whole dose curve; as a rule, active = well fitted cell-killing curve with a large enough effect in the repeat runs; inconclusive = weak or mixed curves; inactive = no such curve, though single readings can be large or run the other way.
Give one outcome, nothing more. List: 1 = active, -1 = inactive

# example entries with known answers
Clc1ccc(C2(Cn3cncn3)OCCO2)c(Cl)c1 ... -1
CNC(=O)/C=C(\C)OP(=O)(OC)OC ... -1

Q. Tell me the recorded outcome of this test for Nc1ccc(Cl)cc1C(=O)c1ccccc1F .
A. -1

Q. Tell me the recorded outcome of this test for CNC(=O)Oc1cc(C)cc(C(C)C)c1 .
A. -1

Q. Tell me the recorded outcome of this test for CCOP(=S)(NC(C)C)Oc1ccccc1C(=O)OC(C)C (stereo not drawn) .
A. -1

Q. Tell me the recorded outcome of this test for COP(=O)(OC)Oc1ccc([N+](=O)[O-])cc1 .
A. -1

Q. Tell me the recorded outcome of this test for COc1ccc(Cc2nccc3cc(OC)c(OC)cc23)cc1OC .
A. -1

----------
Test: qHTS assay to identify small molecule antagonists of the thyroid receptor (TR) signaling pathway - cell viability counter screen (AID 743064); note: nearly all actives have a fitted effect of over 50% in size; note: potency is the fitted concentration of half-maximal effect
Conditions: GH3.TRE-Luc viability, CellTiter-Fluor, 24 h; series mostly up to 70.3 µM
Records with an inconclusive call do not appear. Activity calls are given as the source filed them. The call rests on the fitted dose curve; in most records, active means well fitted cell-killing curve with a large enough effect in the repeat runs; inconclusive means weak or mixed curves, or effect the other way; inactive means no such curve, though single readings can be large or run the other way.
endpoint.name: Potency

Worked examples follow.
CCCC[N+]1(C)CCCC1 (tested in a mixture with another compound) ... inactive
Cc1cnc2c(C(=O)O)c(Cl)ccc2c1 ... inactive
COC(=O)c1ccccc1S(=O)(=O)NC(=O)Nc1nc(C)nc(OC)n1 ... inactive
CSC(=O)c1c(C(F)F)nc(C(F)(F)F)c(C(=O)SC)c1CC(C)C ... 54.2 µM (active)
CN ... inactive
CCC[CH2][Sn]([CH2]CCC)([CH2]CCC)[CH2]CCC ... 30.6 µM (active)

Dear colleague, could you please provide Potency for the compounds listed below?
1. CCCCC(CC)COC(=O)OOC(C)(C)C (configuration not stated)
2. CNC(=O)CSP(=O)(OC)OC
3. Nc1nc(N)nc(Cl)n1

A.
["inactive", "inactive", "inactive"]

----------
Experiment: qHTS assay to identify small molecule agonists of the farnesoid-X-receptor (FXR) signaling pathway - cell viability counter screen (AID 743218); note: nearly all actives have a fitted effect of over 45% in size
Details: FXR-bla HEK293T viability, CellTiter-Glo luminescence, 16 h; series mostly up to 62.6 µM
Records with an inconclusive call do not appear. Activity calls are given as the source filed them. The call rests on the fitted dose curve; in most records, active means well fitted cell-killing curve with a large enough effect in the repeat runs; inconclusive means weak or mixed curves, or effect the other way; inactive means no such curve, though single readings can be large or run the other way.
Give one outcome, nothing more. List: true = active, false = inactive

Q. Tell me the recorded outcome of this test for C=Cc1cccc(CCl)c1 .
A. false

----------
Test: A CellTox Green Cytotoxicity Assay to monitor cytotoxicity in HepG2 cells - 8 hour (AID 1224890); note: nearly all actives have a fitted effect of over 45% in size
Details: CellTox Green fluorescence; series mostly up to 76.8 µM
Inconclusive results are not listed. The source made the active and inactive calls. Calls follow the shape of the dose curve; as a rule, active = well fitted activation curve with a large enough effect in the repeat runs; inconclusive = weak or mixed curves; inactive = flat fitted curve, though single readings scatter.
Give one outcome, nothing more. List: Yes (active), No (inactive)

[Cl-].[Cl-].[Sn+2] ... No

Q. Tell me the recorded outcome of this test for Cc1c([N+](=O)[O-])cc2c(c1[N+](=O)[O-])C(C)(C)CC2(C)C .
A. No

Q. Tell me the recorded outcome of this test for CCn1cc[n+](C)c1 (tested in a mixture with another compound) .
A. No

Q. Tell me the recorded outcome of this test for CCOP(=S)(NC(C)C)Oc1ccccc1C(=O)OC(C)C (configuration not stated) .
A. No

Q. Tell me the recorded outcome of this test for O=C(NC(=O)c1c(F)cccc1F)Nc1ccc(Oc2ccc(C(F)(F)F)cc2Cl)cc1F .
A. No

Q. Tell me the recorded outcome of this test for c1ccc2c(c1)cc1ccc3cccc4ccc2c1c34 .
A. No

Q. Tell me the recorded outcome of this test for N#Cc1c2ccccc2cc2ccccc12 .
A. No

Q. Tell me the recorded outcome of this test for C#CC1(O)CCCCC1 .
A. No

Q. Tell me the recorded outcome of this test for Fc1ccc(C(OCCN2CCN(CCCc3ccccc3)CC2)c2ccc(F)cc2)cc1 .
A. Yes

Q. Tell me the recorded outcome of this test for N#CSCc1ccccc1 .
A. No

Q. Tell me the recorded outcome of this test for CN1C2CCC(C)(C)C1CC(OC(=O)C(O)(c1cccs1)c1cccs1)C2 (configuration not stated) .
A. No

Q. Tell me the recorded outcome of this test for O=C(O)[C@H](O)[C@@H](O)C(=O)O .
A. No

Hello, the source for this data is PubChem BioAssay (Tox21), in case you need it.
